- target_of_assay: PI 3-kinase alpha (Homo sapiens)
- test_name: Cellular assay H1, p-Akt (S473) in Rat-1 cells, Surefire format
- Format: cell-based
- particulars: non-asterisked data: version H1 (Surefire format), Rat-1 cells; read-out: Assay H PI3Kα IC50
readout_kind: IC50

Examples from the recorded data:
compound | recorded_value
Cc1ncc(S(=O)(=O)NCC(C)(C)O)cc1-c1cnc(N)c(-n2cncn2)n1 | > 10 µM
Cc1ccc(S(=O)(=O)NCCC(C)(C)O)cc1-c1cnc(N)c(-c2cnn(CC(C)C)c2)n1 | 1.68 µM
Cc1ccc(S(=O)(=O)N[C@H]2CC[C@H](O)CC2)cc1-c1cnc(N)c(-c2cncnc2)n1 | 8.47 µM

What measured IC50 is associated with COc1ccc(-c2nc(-c3cc(S(=O)(=O)NCCC(C)(C)O)ccc3C)cnc2N)c(C)n1 on PI 3-kinase alpha (Homo sapiens)?
3.14 µM

What measured IC50 is associated with Cc1ccc(S(=O)(=O)NCC2(CO)COC2)cc1-c1cnc(N)c(-n2cncn2)n1 on PI 3-kinase alpha (Homo sapiens)?
> 10 µM

What measured IC50 is associated with Cc1ccc(S(=O)(=O)NCCC(C)(C)O)cc1-c1cnc(N)c(-c2cnn(C)c2)n1 on PI 3-kinase alpha (Homo sapiens)?
4.01 µM

What measured IC50 is associated with Cc1cc(Cl)c(S(=O)(=O)NCC(C)(C)O)cc1-c1cnc(N)c(-n2cncn2)n1 on PI 3-kinase alpha (Homo sapiens)?
0.25 µM

What measured IC50 is associated with CCc1noc(-c2nc(-c3cc(S(=O)(=O)N[C@H]4CC[C@H](O)CC4)ccc3C)cnc2N)n1 on PI 3-kinase alpha (Homo sapiens)?
1.08 µM

What measured IC50 is associated with CCn1ncc(-c2nc(-c3cc(S(=O)(=O)NCC(C)(C)O)ccc3C)cnc2N)n1 on PI 3-kinase alpha (Homo sapiens)?
0.86 µM

What measured IC50 is associated with Cc1ccc(S(=O)(=O)NCCC(C)(C)O)cc1-c1cnc(N)c(-c2csc(CN3CCOCC3)c2)n1 on PI 3-kinase alpha (Homo sapiens)?
3.81 µM

What measured IC50 is associated with Cc1cncc(-c2nc(-c3cc(S(=O)(=O)NCCC(C)(C)O)ccc3C)cnc2N)c1 on PI 3-kinase alpha (Homo sapiens)?
6.97 µM

What measured IC50 is associated with Cc1ccc(S(=O)(=O)NCCC(C)(C)O)cc1-c1cnc(N)c(-c2ccc(N3CCCCC3)nc2)n1 on PI 3-kinase alpha (Homo sapiens)?
1.97 µM

What measured IC50 is associated with Cc1ccc(S(=O)(=O)NCCC(O)C(F)(F)F)cc1-c1cnc(N)c(-c2cnn(C)c2)n1 (stereo not shown) on PI 3-kinase alpha (Homo sapiens)?
6.17 µM

* * *

List of IC50 values.
- target_of_assay: PI 4-kinase beta (Homo sapiens, UniProt Q9UBF8)
- Sequence (Q9UBF8 whole entry): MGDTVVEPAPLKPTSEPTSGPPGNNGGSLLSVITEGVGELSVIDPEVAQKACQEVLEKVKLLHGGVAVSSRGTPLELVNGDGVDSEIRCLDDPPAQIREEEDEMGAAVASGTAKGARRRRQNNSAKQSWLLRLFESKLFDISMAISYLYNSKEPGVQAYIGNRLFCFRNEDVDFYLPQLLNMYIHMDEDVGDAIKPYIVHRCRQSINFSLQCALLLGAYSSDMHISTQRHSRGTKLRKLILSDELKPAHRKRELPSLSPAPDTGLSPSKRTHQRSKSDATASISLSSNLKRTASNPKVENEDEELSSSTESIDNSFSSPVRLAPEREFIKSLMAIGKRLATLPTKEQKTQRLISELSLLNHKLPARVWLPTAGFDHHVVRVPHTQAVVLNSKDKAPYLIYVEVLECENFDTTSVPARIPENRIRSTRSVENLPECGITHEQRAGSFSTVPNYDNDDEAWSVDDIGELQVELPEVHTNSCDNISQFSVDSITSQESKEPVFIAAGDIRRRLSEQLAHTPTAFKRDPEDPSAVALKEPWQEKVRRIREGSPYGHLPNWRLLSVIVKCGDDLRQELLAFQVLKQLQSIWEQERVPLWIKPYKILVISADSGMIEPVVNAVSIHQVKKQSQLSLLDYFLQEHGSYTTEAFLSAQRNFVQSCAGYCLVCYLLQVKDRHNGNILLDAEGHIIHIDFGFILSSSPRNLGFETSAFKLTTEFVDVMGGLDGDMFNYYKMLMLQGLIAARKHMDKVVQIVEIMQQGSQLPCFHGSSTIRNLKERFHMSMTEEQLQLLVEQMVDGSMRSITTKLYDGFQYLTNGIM
- test_name: Kinase Glo Luminescent Kinase Assay (Kglo), assay D
- Assay type: biochemical
- particulars: read-out: Assay D PI4Kβ IC50
Counter-ions that a name gives are not always drawn.
Reply numerically in µM, unit not repeated.

Examples from the recorded data:
compound | target_of_assay | scale_unit | IC50
Cc1ccc(S(=O)(=O)NCCC(C)(C)O)cc1-c1cnc(N)c(-c2cnn(C)c2)n1 | PI 4-kinase beta (Homo sapiens, UniProt Q9UBF8) | µM | 6.61
Cc1ccc(S(=O)(=O)NC(C)C(C)C)cc1-c1cnc(N)c(-n2cncn2)n1 (stereo not shown) | PI 4-kinase beta (Homo sapiens, UniProt Q9UBF8) | µM | 6.1
Cc1cc(-c2nc(-c3cc(S(=O)(=O)NCC4(C(N)=O)CCOCC4)ccc3C)cnc2N)ccn1 | PI 4-kinase beta (Homo sapiens, UniProt Q9UBF8) | µM | 6.7

What measured IC50 is associated with Cc1ccc(S(=O)(=O)NCC2COC2)cc1-c1cnc(N)c(-n2cncn2)n1 on PI 4-kinase beta (Homo sapiens, UniProt Q9UBF8)?
4.95

What measured IC50 is associated with CCN1CCC[C@@H]1CNS(=O)(=O)c1ccc(C)c(-c2cnc(N)c(-c3cn(C)nc3C)n2)c1 [Example 27, hydrochloride] on PI 4-kinase beta (Homo sapiens, UniProt Q9UBF8)?
6.65

What measured IC50 is associated with Cc1ccc(S(=O)(=O)NCC2(CO)CCCC2)cc1-c1cnc(N)c(-n2cncn2)n1 on PI 4-kinase beta (Homo sapiens, UniProt Q9UBF8)?
4.4

* * *

- target_of_assay: PI 3-kinase beta (Homo sapiens, UniProt P42338)
- Sequence (P42338 whole entry): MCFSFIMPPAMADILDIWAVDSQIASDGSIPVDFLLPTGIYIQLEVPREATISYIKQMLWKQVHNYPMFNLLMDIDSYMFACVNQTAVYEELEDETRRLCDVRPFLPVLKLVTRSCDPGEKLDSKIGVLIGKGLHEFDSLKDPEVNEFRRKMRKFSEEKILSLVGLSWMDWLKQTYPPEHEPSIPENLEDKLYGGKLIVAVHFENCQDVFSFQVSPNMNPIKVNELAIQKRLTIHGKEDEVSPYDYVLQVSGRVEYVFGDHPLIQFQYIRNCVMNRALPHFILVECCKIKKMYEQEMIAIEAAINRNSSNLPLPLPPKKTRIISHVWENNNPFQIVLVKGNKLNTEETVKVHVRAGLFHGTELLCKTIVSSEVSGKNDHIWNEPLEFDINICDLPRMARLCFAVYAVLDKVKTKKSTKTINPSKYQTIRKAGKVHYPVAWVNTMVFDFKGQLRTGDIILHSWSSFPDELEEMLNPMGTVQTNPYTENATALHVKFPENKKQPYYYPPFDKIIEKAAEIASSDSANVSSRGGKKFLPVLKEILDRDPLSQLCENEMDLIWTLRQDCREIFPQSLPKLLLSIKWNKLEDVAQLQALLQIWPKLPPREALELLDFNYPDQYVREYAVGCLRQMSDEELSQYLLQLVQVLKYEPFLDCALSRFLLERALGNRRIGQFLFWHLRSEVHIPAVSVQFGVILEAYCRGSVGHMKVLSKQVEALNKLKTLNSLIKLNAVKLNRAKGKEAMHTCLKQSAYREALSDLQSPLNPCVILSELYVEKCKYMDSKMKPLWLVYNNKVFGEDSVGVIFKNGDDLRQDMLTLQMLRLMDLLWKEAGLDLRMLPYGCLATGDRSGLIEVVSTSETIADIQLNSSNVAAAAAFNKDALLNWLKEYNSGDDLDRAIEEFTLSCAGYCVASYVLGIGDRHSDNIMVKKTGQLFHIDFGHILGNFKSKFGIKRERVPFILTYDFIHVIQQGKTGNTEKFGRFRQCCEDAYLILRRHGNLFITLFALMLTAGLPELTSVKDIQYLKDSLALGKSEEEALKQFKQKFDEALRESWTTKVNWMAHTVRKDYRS
- Sequence (P27986 461-568 partner): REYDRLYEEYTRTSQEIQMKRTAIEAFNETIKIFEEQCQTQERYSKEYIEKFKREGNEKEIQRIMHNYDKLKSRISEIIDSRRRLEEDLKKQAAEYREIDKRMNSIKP
- test_name: Kinase Glo Luminescent Kinase Assay (Kglo), assay B
- Type: biochemical
- particulars: read-out: Assay B PI3Kβ IC50
Where a name gives a salt, the structure may show the parent alone.
List of IC50 values.
Reply numerically in µM, unit not repeated.

Examples from the recorded data:
compound | IC50, µM
Cc1ccc(S(=O)(=O)NCCC2(O)CCCC2)cc1-c1cnc(N)c(-n2cncn2)n1 [Example 127.36] | 1.9
Cc1cc(-c2nc(-c3cc(S(=O)(=O)NCC4CCOC4)ccc3C)cnc2N)ccn1 (stereo not shown) [Example 129.18] | 8.11
Cc1ccc(S(=O)(=O)NOCC(C)(C)O)cc1-c1cnc(N)c(-c2cn(C)nc2C)n1 [Example 125] | 6
Cc1ccc(S(=O)(=O)NCCC(C)(C)O)cc1-c1cnc(N)c(-c2ccc(F)nc2)n1 [Example 119.18] | 8.04
Cc1ccc(S(=O)(=O)NC2CC2)cc1-c1cnc(N)c(-n2cncn2)n1 [Example 127.53] | 1.4

Item Cc1ccc(S(=O)(=O)N2CCC(F)(F)C2)cc1-c1cnc(N)c(-n2cncn2)n1 [Example 127.3] has what recorded IC50?
3.2

Item Cc1nc(C)n(-c2nc(-c3cc(S(=O)(=O)NCC(C)(C)O)ccc3C)cnc2N)n1 [Example 49] has what recorded IC50?
5.3

Item Cc1ccc(S(=O)(=O)NCC2(O)CCCC2)cc1-c1cnc(N)c(-n2cncn2)n1 [Example 127.35] has what recorded IC50?
1.1

Item Cc1cc(-c2nc(-c3cc(S(=O)(=O)N[C@@H]4CCC[C@H]4N)ccc3C)cnc2N)ccn1 [Example 129.39] has what recorded IC50?
7.5

Item Cc1ccc(S(=O)(=O)NCCN)cc1-c1cnc(N)c(-n2cncn2)n1 [Example 33, trifluoroacetic acid salt] has what recorded IC50?
0.38

* * *

- target_of_assay: PI 3-kinase gamma (Homo sapiens, UniProt P48736)
- Sequence (P48736 whole entry): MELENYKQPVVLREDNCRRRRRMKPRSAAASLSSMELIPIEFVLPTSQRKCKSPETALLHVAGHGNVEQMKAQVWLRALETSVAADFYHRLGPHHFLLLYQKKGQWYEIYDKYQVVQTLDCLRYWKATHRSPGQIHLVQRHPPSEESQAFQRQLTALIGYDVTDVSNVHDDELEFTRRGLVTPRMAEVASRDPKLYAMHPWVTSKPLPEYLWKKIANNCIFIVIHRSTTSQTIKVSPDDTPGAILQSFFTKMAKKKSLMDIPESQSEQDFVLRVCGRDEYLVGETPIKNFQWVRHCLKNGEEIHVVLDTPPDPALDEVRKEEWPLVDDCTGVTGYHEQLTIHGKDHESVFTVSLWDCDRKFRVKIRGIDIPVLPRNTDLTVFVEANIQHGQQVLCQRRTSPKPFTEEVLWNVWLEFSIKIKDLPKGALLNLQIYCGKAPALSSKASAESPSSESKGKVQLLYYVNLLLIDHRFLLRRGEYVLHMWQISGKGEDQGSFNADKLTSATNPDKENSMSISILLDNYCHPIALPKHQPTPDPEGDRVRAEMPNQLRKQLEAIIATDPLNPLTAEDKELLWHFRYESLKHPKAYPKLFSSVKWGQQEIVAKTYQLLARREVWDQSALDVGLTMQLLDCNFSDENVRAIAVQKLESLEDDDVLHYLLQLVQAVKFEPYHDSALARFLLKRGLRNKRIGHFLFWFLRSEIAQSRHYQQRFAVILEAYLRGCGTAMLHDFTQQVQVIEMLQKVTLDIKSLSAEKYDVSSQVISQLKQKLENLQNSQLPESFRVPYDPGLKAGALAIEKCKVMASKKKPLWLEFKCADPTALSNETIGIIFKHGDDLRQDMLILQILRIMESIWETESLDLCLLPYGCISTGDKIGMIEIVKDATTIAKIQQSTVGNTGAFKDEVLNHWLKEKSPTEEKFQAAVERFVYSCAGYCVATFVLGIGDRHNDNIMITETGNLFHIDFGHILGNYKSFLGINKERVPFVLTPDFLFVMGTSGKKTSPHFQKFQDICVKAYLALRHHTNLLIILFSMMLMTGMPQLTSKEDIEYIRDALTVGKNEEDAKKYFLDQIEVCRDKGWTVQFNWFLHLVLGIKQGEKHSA
- test_name: Cellular U937 AKT assay K2 (HTRF)
- Type: cell-based
- particulars: U937 cells, K2 format; read-out: Assay K2 PI3Kγ IC50
readout_kind: IC50 (nM)
Reply numerically in nM, unit not repeated.

compound | IC50 [nM]
Cc1ccc(S(=O)(=O)N[C@H]2CC[C@H](O)CC2)cc1-c1cnc(N)c(-c2cccnc2)n1 [Example 22] | 100

Item Cc1ccc(S(=O)(=O)NCC[C@@H](O)C(F)(F)F)cc1-c1cnc(N)c(-c2cn(C)nc2C)n1 (single isomer, unassigned) [Example 52b] has what recorded IC50?
337

Item CCN1CCC[C@H]1CNS(=O)(=O)c1ccc(C)c(-c2cnc(N)c(-c3cn(C)nc3C)n2)c1 [Example 128.1] has what recorded IC50?
332

Item Cc1ncc(-c2nc(-c3cc(S(=O)(=O)NC[C@H]4CCOC4)ccc3C)cnc2N)s1 [Example 42] has what recorded IC50?
18

Item Cc1ccc(S(=O)(=O)NCC(C)(C)O)cc1-c1cnc(N)c(-c2cnn(C)c2C)n1 [Example 46] has what recorded IC50?
331

Item Cc1ccc(S(=O)(=O)NCCC(C)(C)O)cc1-c1cnc(N)c(-c2cnn(C)n2)n1 [Example 85] has what recorded IC50?
65

* * *

List of pIC50 values.
- target_of_assay: PI 3-kinase alpha (Homo sapiens)
- test_name: Cellular assay H1, p-Akt (S473) in Rat-1 cells, Surefire format
- Type: cell-based
- particulars: non-asterisked data: version H1 (Surefire format), Rat-1 cells; read-out: Assay H PI3Kα IC50
In textbook form, pIC50 equals minus log to base ten of the concentration in mol/L.

Item Cc1ccc(S(=O)(=O)N[C@H]2CC[C@H](O)CC2)cc1-c1cnc(N)c(-c2cnn(C)c2)n1 has what recorded pIC50?
5.07

Item Cc1ccc(S(=O)(=O)NCCC(C)(C)O)cc1-c1cnc(N)c(-c2cscn2)n1 has what recorded pIC50?
5.24

Item CCn1cc(-c2nc(-c3cc(S(=O)(=O)NCCC(C)(C)O)ccc3C)cnc2N)cn1 has what recorded pIC50?
5.64

* * *

- target_of_assay: PI 3-kinase delta (Homo sapiens)
- Sequence (O00329 whole entry, one chain of several): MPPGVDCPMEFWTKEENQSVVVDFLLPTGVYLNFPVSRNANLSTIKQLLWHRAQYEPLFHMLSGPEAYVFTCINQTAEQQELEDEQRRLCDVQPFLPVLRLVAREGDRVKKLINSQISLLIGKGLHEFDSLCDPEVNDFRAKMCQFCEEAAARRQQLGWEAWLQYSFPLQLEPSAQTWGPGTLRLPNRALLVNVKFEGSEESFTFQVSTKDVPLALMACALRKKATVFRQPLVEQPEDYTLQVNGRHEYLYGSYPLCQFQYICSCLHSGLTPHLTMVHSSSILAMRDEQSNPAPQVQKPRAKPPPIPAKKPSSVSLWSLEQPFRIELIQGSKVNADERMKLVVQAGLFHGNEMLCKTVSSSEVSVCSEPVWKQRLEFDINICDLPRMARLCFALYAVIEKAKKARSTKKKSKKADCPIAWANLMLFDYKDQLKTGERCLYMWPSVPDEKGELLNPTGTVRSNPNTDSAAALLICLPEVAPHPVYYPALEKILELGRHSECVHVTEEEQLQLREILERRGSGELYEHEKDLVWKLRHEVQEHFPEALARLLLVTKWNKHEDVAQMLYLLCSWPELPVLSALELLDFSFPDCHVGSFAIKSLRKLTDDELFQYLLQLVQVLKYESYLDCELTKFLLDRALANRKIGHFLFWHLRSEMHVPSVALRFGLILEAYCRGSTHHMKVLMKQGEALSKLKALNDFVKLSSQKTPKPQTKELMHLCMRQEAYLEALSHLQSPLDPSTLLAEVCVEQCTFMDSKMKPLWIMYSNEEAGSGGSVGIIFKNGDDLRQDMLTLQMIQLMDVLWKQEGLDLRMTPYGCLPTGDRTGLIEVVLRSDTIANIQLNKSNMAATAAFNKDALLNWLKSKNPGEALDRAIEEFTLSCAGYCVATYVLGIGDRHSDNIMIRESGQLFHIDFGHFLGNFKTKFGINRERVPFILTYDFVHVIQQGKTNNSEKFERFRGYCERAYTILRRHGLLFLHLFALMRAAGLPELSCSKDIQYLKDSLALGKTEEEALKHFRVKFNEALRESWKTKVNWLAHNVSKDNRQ
- test_name: TR-FRET Adapta assay, assay F
- particulars: read-out: Assay F PI3Kδ IC50
Structures can show the parent of a compound that is named as a salt.
List of IC50 values.
Reply numerically in nM, unit not repeated.

Examples from the recorded data:
molecule | target_of_assay | recorded_value
Cc1ccc(S(=O)(=O)NCC2COCCN2C)cc1-c1cnc(N)c(-c2cn(C)nc2C)n1 (stereo not shown) [Example 128.2] | PI 3-kinase delta (Homo sapiens) | 450
Cc1ccc(S(=O)(=O)NC2CCOCC2)cc1-c1cnc(N)c(-n2cncn2)n1 [Example 68] | PI 3-kinase delta (Homo sapiens) | 1500
Cc1ccc(S(=O)(=O)N[C@H]2CC[C@H](O)CC2)cc1-c1cnc(N)c(-n2cccn2)n1 [Example 103] | PI 3-kinase delta (Homo sapiens) | 150

Item Cc1ccc(S(=O)(=O)NCCC(F)(F)F)cc1-c1cnc(N)c(-n2cncn2)n1 [Example 127.31] has what recorded IC50?
450

Item Cc1ccc(S(=O)(=O)NC[C@@H](C)O)cc1-c1cnc(N)c(-n2cncn2)n1 [Example 127.13] has what recorded IC50?
1100

Item CCN1CCC[C@@H]1CNS(=O)(=O)c1ccc(C)c(-c2cnc(N)c(-c3cnc(C)s3)n2)c1 [Example 41] has what recorded IC50?
20

Item Cc1ncc(-c2nc(-c3cc(S(=O)(=O)NCCO)ccc3C)cnc2N)s1 [Example 45] has what recorded IC50?
230

Item Cc1ccc(S(=O)(=O)NCCC(C)(C)O)cc1-c1cnc(N)c(-c2cn[nH]c2)n1 [Example 119.33] has what recorded IC50?
260

Item Cc1ccc(S(=O)(=O)NCC2(O)CCCC2)cc1-c1cnc(N)c(-n2cncn2)n1 [Example 127.35] has what recorded IC50?
810

Item Cc1ccc(S(=O)(=O)NC[C@@H]2CCNC2)cc1-c1cnc(N)c(-n2cncn2)n1 [Example 127.57, trifluoroacetic acid salt] has what recorded IC50?
760

Item Cc1ccc(S(=O)(=O)NCC2(CO)CCCCC2)cc1-c1cnc(N)c(-n2cncn2)n1 [Example 127.52] has what recorded IC50?
330

Item Cc1ccc(S(=O)(=O)NCCC(C)(C)O)cc1-c1cnc(N)c(-c2ccc(OC3CCOCC3)nc2)n1 [Example 119.24] has what recorded IC50?
1670
